Field: pKi CCK-A. Provide a value for each of the compounds that follow.
TGT: CCK-A receptor
MEASUREMENT_PROTOCOL: CCK receptor binding, CCK-A receptor (Pancreas Assay)
Answers are plain numbers.

Here's what some known entries look like.
COMPOUND	pKi CCK-A
CC(C)CCN1C(=O)C(NC(=O)Oc2cccc(N(C)C)c2)C(=O)N(c2ccccc2F)c2ccccc21 (racemic)	6.38
CC(C)CCN1C(=O)C(NC(=O)Oc2cccc(N(C)C)c2)C(=O)N(c2ccccc2)c2ccc(Cl)cc21 (racemic)	5.89

Your task in this section: give pKi CCK-A for each listed record.
1. COc1cccc(OC(=O)NC2C(=O)N(CCC(C)C)c3cc(Cl)c(Cl)cc3N(c3ccccc3)C2=O)c1 (racemic)
2. CN(C)c1cccc(OC(=O)NC2C(=O)N(CCC(C)(C)C)c3ccccc3N(c3ccccc3F)C2=O)c1 (racemic)
3. CC(C)CCN1C(=O)C(NC(=O)Oc2ccccc2)C(=O)N(c2ccccc2)c2ccccc21 (racemic)
4. O=C(NC1C(=O)N(CCC2CCCC2)c2ccccc2N(c2ccccc2F)C1=O)Oc1ccccc1 (centres unmarked)
5. CN(C)c1cccc(OC(=O)NC2C(=O)N(CC34CC5CC(CC(C5)C3)C4)c3ccccc3N(c3ccccc3)C2=O)c1 (centres unmarked)
6. CC(C)CCN1C(=O)C(NC(=O)Oc2cccc(N(C)C)c2)C(=O)N(c2ccccc2)c2cc(Cl)c(Cl)cc21 (racemic)

Response:
1. 5.37
2. 6.75
3. 5.29
4. 6.25
5. 5.48
6. 5.49
